- Tested on: Solute carrier family 15 member 1 (Rattus norvegicus, UniProt P51574)
- Sequence (P51574 whole entry): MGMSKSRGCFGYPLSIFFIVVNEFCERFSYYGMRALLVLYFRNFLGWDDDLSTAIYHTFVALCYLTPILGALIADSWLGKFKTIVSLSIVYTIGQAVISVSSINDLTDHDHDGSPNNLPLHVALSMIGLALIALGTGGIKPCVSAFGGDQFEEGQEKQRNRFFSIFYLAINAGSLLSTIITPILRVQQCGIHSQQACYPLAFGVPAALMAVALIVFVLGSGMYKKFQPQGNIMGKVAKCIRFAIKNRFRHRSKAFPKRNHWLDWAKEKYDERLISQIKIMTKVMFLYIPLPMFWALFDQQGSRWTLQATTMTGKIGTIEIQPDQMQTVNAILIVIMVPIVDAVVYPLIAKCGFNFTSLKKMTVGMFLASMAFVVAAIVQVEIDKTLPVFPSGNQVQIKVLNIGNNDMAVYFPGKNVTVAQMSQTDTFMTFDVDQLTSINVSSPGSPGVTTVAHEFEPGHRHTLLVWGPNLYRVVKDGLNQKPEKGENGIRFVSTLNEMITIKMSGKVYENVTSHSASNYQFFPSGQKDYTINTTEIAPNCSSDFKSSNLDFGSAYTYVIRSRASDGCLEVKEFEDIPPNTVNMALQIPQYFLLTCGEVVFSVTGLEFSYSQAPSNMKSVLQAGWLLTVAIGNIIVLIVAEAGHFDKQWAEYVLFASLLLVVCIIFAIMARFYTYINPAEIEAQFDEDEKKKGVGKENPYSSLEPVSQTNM
- Experimental details: TP_TRANSPORTER: inhibition of Gly-Sar uptake in PEPT1-expressing LLC-PK1 cells
Peptide text beside a SMILES is read from it.
Task for the reader: assign each of the following molecules its reported pKi.
One number for each entry, as −log10 of the molar value.

>>> recorded_value("NCC(=O)N[C@@H](Cc1c[nH]cn1)C(=O)O (H-Gly-His-OH)")
2.85
>>> recorded_value("NCC(=O)CCC(=O)O [AMINOLEVULINIC ACID]")
2.66
>>> recorded_value("NCC(=O)N[C@@H](CC(N)=O)C(=O)O (H-Gly-Asn-OH)")
3.57

Batch request: pKi for each of the following molecules.
1. NCCCC[C@H](N)C(=O)NCC(=O)O (H-Lys-Gly-OH)
2. NCC(=O)N[C@@H](Cc1ccc(O)cc1)C(=O)O (H-Gly-Tyr-OH)
3. NCC(=O)N[C@@H](Cc1c[nH]c2ccccc12)C(=O)O (H-Gly-Trp-OH)
4. CSCC[C@H](NC=O)C(=O)N[C@@H](C)C(=O)O (HELM PEPTIDE1{[O=C[*:2]].M.A}$$$$V2.0)

1: 3.04; 2: 3.68; 3: 2.85; 4: 1.62

Batch request: pKi for each of the following molecules.
1. CSCC[C@H](N)C(=O)N[C@@H](C)C(=O)O (H-Met-Ala-OH)
2. NCC(=O)NCC(=O)O (H-Gly-Gly-OH)

1: 3.82; 2: 3.07
